Data origin, for the record: patent US20240279207A1

Test system: ESR1 transcription in MVLN cells
Assay: MVLN reporter assay: repression of ESR1 transcription (luciferase signal)
Format: cell-based
Conditions: Homo sapiens, MVLN, 24 h, luciferase signal after 24 h, read-out: MVLN reporter assay, IC50 [M] (arithmetic mean)
// values below are reported IC50
Readout kind: IC50 (M)

Compound	Assayed system	Obs value
O=C(NS(=O)(=O)c1cccc2c1OC(F)(F)C(F)(F)O2)c1cc2c(F)cc(N3CC(F)C3)cc2o1	ESR1 transcription in MVLN cells	7.45e-07
Cc1ccc2cccc(S(=O)(=O)NC(=O)c3cc4c(F)cc(N5CCC5C(C)(C)O)cc4o3)c2n1 (racemic)	ESR1 transcription in MVLN cells	5.92e-06
CSc1nc2ccccn2c1S(=O)(=O)NC(=O)c1cc2c(F)cc(N3CCC3)cc2o1	ESR1 transcription in MVLN cells	3.66e-06
O=C(NS(=O)(=O)c1cccc2c1OCCO2)c1cc2c(F)cc(N3CC(F)C3)cc2o1	ESR1 transcription in MVLN cells	5.92e-07
CCOc1c(F)cccc1S(=O)(=O)NC(=O)c1cc2c(F)cc(N3CCC3)cc2o1	ESR1 transcription in MVLN cells	4.44e-07
O=C(NS(=O)(=O)c1cccc2cnccc12)c1cc2c(F)cc(N3CCC3)cc2o1	ESR1 transcription in MVLN cells	1.85e-05
O=C(NS(=O)(=O)c1ccccc1-c1ccccc1)c1cc2ccc(N3CC(F)(F)C3)cc2o1	ESR1 transcription in MVLN cells	3.04e-06
N#CCCc1ccc(S(=O)(=O)NC(=O)c2cc3c(F)cc(N4CCC4)cc3o2)cc1	ESR1 transcription in MVLN cells	1.26e-05
COc1c(S(=O)(=O)NC(=O)c2cc3c(F)cc(N4CCC4)cc3o2)ccc(Cl)c1Cl	ESR1 transcription in MVLN cells	9.24e-07
COc1cc(Br)ccc1S(=O)(=O)NC(=O)c1cc2c(F)cc(N3CCC3)cc2o1	ESR1 transcription in MVLN cells	1.65e-07
O=C(NS(=O)(=O)c1cccc2c1NCCC2)c1cc2c(F)cc(N3CC(F)C3)cc2o1	ESR1 transcription in MVLN cells	5.47e-07
C=C(C)c1ccc(OC)c(S(=O)(=O)NC(=O)c2cc3c(F)cc(N4CCC4)cc3o2)c1	ESR1 transcription in MVLN cells	7.15e-08
Cc1ccc2c(S(=O)(=O)NC(=O)c3cc4c(F)cc(N5CCC5)cc4o3)nn(C)c2n1	ESR1 transcription in MVLN cells	8.4e-06

---

Test system: ESR1 transcription in MVLN cells
Test: MVLN reporter assay: repression of ESR1 transcription (luciferase signal)
Format: cell-based
Conditions: Homo sapiens, MVLN, 24 h, luciferase signal after 24 h, read-out: MVLN reporter assay, IC50 [M] (arithmetic mean)
// values below are reported IC50
Readout kind: IC50 (M)

Test smiles	Obs value
CCOc1cccc(C(C)C)c1S(=O)(=O)NC(=O)c1cc2c(F)cc(N3CCC3)cc2o1	2.72e-07
O=C(NS(=O)(=O)c1cccc2ccc(Cl)nc12)c1cc2c(F)cc(N3CC(F)C3)cc2o1	7.11e-08
Cc1ccc(F)c(S(=O)(=O)NC(=O)c2cc3c(F)cc(N4CCC4)cc3o2)c1F	4.45e-07
CCn1nc(S(=O)(=O)NC(=O)c2cc3c(F)cc(N4CCC4)cc3o2)c2cccnc21	4.61e-06
Cc1ccc(C(C)C)cc1S(=O)(=O)NC(=O)c1cc2c(F)cc(N3CCC3)cc2o1	5.11e-07
O=C(NS(=O)(=O)c1ncccc1Br)c1cc2c(F)cc(N3CCC3)cc2o1	1.56e-05
Cc1ccc(OC(C)C)c(S(=O)(=O)NC(=O)c2cc3c(F)cc(N4CCC4)cc3o2)c1	7.44e-08
